# assay.target: T1, human CD47-Fc (human, UniProt Q08722 19-139)
# T1 construct: Recombinant CD47-Fc; also called hCD47-Fc; not shown: Fc part
# T1 sequence (Q08722 19-139 limits assumed): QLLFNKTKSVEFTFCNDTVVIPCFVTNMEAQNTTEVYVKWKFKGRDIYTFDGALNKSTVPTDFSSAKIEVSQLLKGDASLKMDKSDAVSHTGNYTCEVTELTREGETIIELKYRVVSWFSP
# test.description: direct titration ELISA, FIG. 11A

>  <binder>
A-D5.17 in human IgG1null format (antibody, V domains shown, Designer clone from A-D5.4; IgG1null) VH: EVQLVQSGAEVKKPGESLKISCKGSGYSFTNYYIFWVRQMPGKGLEWMGIINPVDGDTRYSPSFQGQVTISADKSISTAYLQWSSLKASDTAMYYCARGGYTMDRWGQGTLVTVSS VL: DIVMTQSPLSLPVTPGEPASISCRSSQSLLHSTGYNYLHWYLQKPGQSPQLLIYKVSNRLSGVPDRFSGSGSGTDFTLKISRVEAEDVGVYYCFQNTHTPRTFGQGTKVEIK

>  <binding result>
binds

$$$$
>  <binder>
A-D5.12 in human IgG1null format (antibody, V domains shown, Designer clone from A-D5.4; IgG1null) VH: EVQLVQSGAEVKKPGESLKISCKGSGYSFTNYYIFWVRQMPGKGLEWMGIINPVDGDTRYNPSFQGQVTISADKSISTAYLQWSSLKASDTAMYYCARGGYTMDRWGQGTLVTVSS VL: DIVMTQSPLSLPVTPGEPASISCRSSQSLLHSNGYNYLHWYLQKPGQSPQLLIYKVSNRLSGVPDRFSGSGSGTDFTLKISRVEAEDVGVYYCFQNTHTPRTFGQGTKVEIK

>  <binding result>
binds

$$$$
>  <binder>
A-D5.15 in human IgG1null format (antibody, V domains shown, Designer clone from A-D5.4; IgG1null) VH: EVQLVQSGAEVKKPGESLKISCKGSGYSFTNYYIFWVRQMPGKGLEWMGIINPVDGDTRYSPSFQGQVTISADKSISTAYLQWSSLKASDTAMYYCARGGYTMDRWGQGTLVTVSS VL: DIVMTQSPLSLPVTPGEPASISCRSSQSLLHSGGYNYLHWYLQKPGQSPQLLIYKVSNRLSGVPDRFSGSGSGTDFTLKISRVEAEDVGVYYCFQNTHTPRTFGQGTKVEIK

>  <binding result>
binds

$$$$
